Reference source: patent US11173151B2

Task for the reader: assign each of the following compounds its reported log10 IC50.
Biological target: human V2 receptor (Homo sapiens, UniProt P30518)
Construct: expressed in transfected cells; host or cells: CHO K1 (ATCC) expressing firefly luciferase under a CRE-responsive promoter
Sequence (P30518 whole entry): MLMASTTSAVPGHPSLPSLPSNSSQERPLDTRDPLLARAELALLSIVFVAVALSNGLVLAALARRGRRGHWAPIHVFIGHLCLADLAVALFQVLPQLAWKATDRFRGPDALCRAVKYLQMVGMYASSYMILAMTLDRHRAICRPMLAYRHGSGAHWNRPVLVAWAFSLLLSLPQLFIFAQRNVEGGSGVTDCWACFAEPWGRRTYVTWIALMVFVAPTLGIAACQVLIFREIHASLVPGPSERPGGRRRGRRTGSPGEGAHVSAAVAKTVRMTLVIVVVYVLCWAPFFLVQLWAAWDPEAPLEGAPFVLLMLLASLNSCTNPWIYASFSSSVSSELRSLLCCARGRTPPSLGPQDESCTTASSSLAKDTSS
Assay: Cellular in vitro assay for determining vasopressin receptor activity, V2 receptor cell line (CHO, CRE-luciferase)
Type: cell-based
Conditions: CHO cell line transfected with human V2 receptor; [Arg8]-vasopressin at EC50 concentration, 3 hours; read-out: IC50 hV2
// do not treat as linear: log10 of IC50, unit nM

The examples below pair each entry with its known result.
compound="NC(=O)C1CCCN1C(=O)c1cccc(Cl)c1-n1cnc(Cn2nc(-c3ccc(Cl)cc3)n(C[C@H](O)C(F)(F)F)c2=O)n1 (mixture of isomers)" quantity_measured="log10 IC50" measured_value=3.31
compound=O=C(c1ccccc1-n1cnc(Cn2nc(-c3ccc(Cl)cc3)n(C[C@H](O)C(F)(F)F)c2=O)n1)N1CC=CCC1 quantity_measured="log10 IC50" measured_value=2.45
compound=O=C(NCc1ccco1)c1ccccc1-n1cnc(Cn2nc(-c3ccc(Cl)cc3)n(C[C@H](O)C(F)(F)F)c2=O)n1 quantity_measured="log10 IC50" measured_value=2.19
compound=Cc1ccc(C(=O)Nc2ncccc2-n2cnc(Cn3nc(-c4ccc(Cl)cc4)n(C[C@H](O)C(F)(F)F)c3=O)n2)cc1 quantity_measured="log10 IC50" measured_value=3.36
compound=O=C(Nc1ccc(Cl)nc1)c1ccccc1-n1cnc(Cn2nc(-c3ccc(Cl)cc3)n(C[C@H](O)C(F)(F)F)c2=O)n1 quantity_measured="log10 IC50" measured_value=0.87

Please examine the following record next.
What the record says about `CONC(=O)c1ccccc1-n1cnc(Cn2nc(-c3ccc(Cl)cc3)n(C[C@H](O)C(F)(F)F)c2=O)n1` : log10 IC50 is 2.73

====

Target: human V1a receptor (Homo sapiens)
Construct: expressed in transfected cells; host or cells: CHO K1 (ATCC), also stably transfected with a modified aequorin
Sequence (P37288 whole entry): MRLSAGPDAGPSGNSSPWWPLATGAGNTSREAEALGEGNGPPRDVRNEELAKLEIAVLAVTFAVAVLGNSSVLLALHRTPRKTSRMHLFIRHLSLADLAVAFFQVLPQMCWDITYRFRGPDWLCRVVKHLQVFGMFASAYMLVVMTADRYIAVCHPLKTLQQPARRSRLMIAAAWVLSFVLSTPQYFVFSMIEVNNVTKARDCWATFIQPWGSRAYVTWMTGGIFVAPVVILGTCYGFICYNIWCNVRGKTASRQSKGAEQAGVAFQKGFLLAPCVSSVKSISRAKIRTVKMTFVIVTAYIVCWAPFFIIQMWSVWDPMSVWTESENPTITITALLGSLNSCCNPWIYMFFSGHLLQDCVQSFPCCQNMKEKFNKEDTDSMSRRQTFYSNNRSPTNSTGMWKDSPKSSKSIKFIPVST
Assay: Cellular in vitro assay for determining vasopressin receptor activity, V1a receptor cell line (CHO, aequorin luminescence)
Assay type: cell-based
Settings: selectivity ratio IC50 hV2 / IC50 hV1a
Label 1.0 when ratio IC50 hV2/hV1a is strictly below 60; otherwise label 0.0.

molecule="O=C(NCc1c(F)cccc1F)c1ccccc1-n1cnc(Cn2nc(-c3ccc(Cl)cc3)n(C[C@H](O)C(F)(F)F)c2=O)n1 [Example 242]" class_name=1.0
molecule="O=C(c1ncccc1-n1cnc(Cn2nc(-c3ccc(Cl)cc3)n(C[C@@H](O)C(F)(F)F)c2=O)n1)N1CCCCC1 [Example 471]" class_name=0.0
molecule="Cc1cc(C(=O)Nc2ncccc2-n2cnc(Cn3nc(-c4ccc(Cl)cc4)n(C[C@H](O)C(F)(F)F)c3=O)n2)nn1C [Example 129]" class_name=1.0

Identify whether the molecule O=C(c1ncccc1-n1cnc(Cn2nc(-c3ccc(Cl)cc3)n(C[C@H](O)C(F)(F)F)c2=O)n1)N1CCCCC1 [Example 445] records ratio IC50 hV2/hV1a below 60. 0.0

I wonder whether CC1CCN(C(=O)c2ccccc2-n2cnc(Cn3nc(-c4ccc(Cl)cc4)n(C[C@H](O)C(F)(F)F)c3=O)n2)CC1 [Example 347] has ratio IC50 hV2/hV1a below 60. Can you tell? 0.0

For NC(=O)[C@@H]1CC(F)(F)CN1C(=O)c1cccc(Cl)c1-n1cnc(Cn2nc(-c3ccc(Cl)cc3)n(C[C@H](O)C(F)(F)F)c2=O)n1 [Example 372] , is the recorded ratio IC50 hV2/hV1a below the cut-off of 60? 0.0
